pIC50 overview
# Test Method Notes: Displacement of [3H]AMPA from AMPA receptor in rat cortical membrane
# Assay type: cell membranes
pIC50: −log10 of the molar value.

{"columns": ["Compound", "pIC50"],
 "data": [
  ["O=C(O)C1=NO[C@@]2(CN[C@H](C(=O)O)C2)C1", "< 4.00"],
  ["O=C(O)C1=NO[C@]2(CN[C@H](C(=O)O)C2)C1", "< 4.00"],
  ["O=C(O)[C@H]1C[C@@]2(CN1)CC(O)=NO2", "< 4.00"]
]}

-- ask Which pIC50 value belongs to O=C(O)[C@@H]1C[C@]2(CN1)CC(O)=NO2 ?
-- reply < 4.00

-- ask Which pIC50 value belongs to O=C(O)C1=NO[C@@]2(CN[C@@H](C(=O)O)C2)C1 ?
-- reply < 4.00

-- ask Which pIC50 value belongs to O=C(O)[C@@H]1C[C@@]2(CN1)CC(O)=NO2 ?
-- reply < 4.00

-- ask Which pIC50 value belongs to N[C@]1(C(=O)O)C[C@H]1[C@H]1CC(C(=O)O)=NO1 (racemic) ?
-- reply < 4.00

-- ask Which pIC50 value belongs to O=C(O)C1=NO[C@]2(CN[C@@H](C(=O)O)C2)C1 ?
-- reply < 4.00

-- ask Which pIC50 value belongs to O=C(O)[C@H]1C[C@]2(CN1)CC(O)=NO2 ?
-- reply < 4.00

-- ask Which pIC50 value belongs to N[C@H](C[C@@H]1CC(C(=O)O)=NO1)C(=O)O (racemic) ?
-- reply < 4.00

-- ask Which pIC50 value belongs to N[C@]1(C(=O)O)C[C@H]1[C@@H]1CC(C(=O)O)=NO1 (racemic) ?
-- reply < 4.00

-- ask Which pIC50 value belongs to N[C@]1(C(=O)O)C[C@H]1[C@@H]1CC(O)=NO1 (racemic) ?
-- reply < 4.00

-- ask Which pIC50 value belongs to N[C@H](C[C@H]1CC(C(=O)O)=NO1)C(=O)O (racemic) ?
-- reply < 4.00
